Taken from BigSolDB 2.1.

PARTICULARS: in isopropanol, 298.15 K
QUANTITY NAME: solubility (mole fraction)

record_smiles=C[C@]12CCC3=C4CCC(=O)C=C4CC[C@H]3[C@@H]1CC[C@@]2(O)CC#N measured_result=0.00192

* * *

PARTICULARS: in MTBE, 288.15 K
QUANTITY NAME: solubility (mole fraction)

record_smiles=C[C@]12CCC3=C4CCC(=O)C=C4CC[C@H]3[C@@H]1CC[C@@]2(O)CC#N measured_result=0.000327

* * *

PARTICULARS: in methanol, 318.15 K
QUANTITY NAME: solubility (mole fraction)

record_smiles=C[C@]12CCC3=C4CCC(=O)C=C4CC[C@H]3[C@@H]1CC[C@@]2(O)CC#N measured_result=0.00553
